biological target: recombinant Human RON (Homo sapiens); assay: z'-LYTE FRET kinase activity assay, RON
Sequence (Q04912 25-1400): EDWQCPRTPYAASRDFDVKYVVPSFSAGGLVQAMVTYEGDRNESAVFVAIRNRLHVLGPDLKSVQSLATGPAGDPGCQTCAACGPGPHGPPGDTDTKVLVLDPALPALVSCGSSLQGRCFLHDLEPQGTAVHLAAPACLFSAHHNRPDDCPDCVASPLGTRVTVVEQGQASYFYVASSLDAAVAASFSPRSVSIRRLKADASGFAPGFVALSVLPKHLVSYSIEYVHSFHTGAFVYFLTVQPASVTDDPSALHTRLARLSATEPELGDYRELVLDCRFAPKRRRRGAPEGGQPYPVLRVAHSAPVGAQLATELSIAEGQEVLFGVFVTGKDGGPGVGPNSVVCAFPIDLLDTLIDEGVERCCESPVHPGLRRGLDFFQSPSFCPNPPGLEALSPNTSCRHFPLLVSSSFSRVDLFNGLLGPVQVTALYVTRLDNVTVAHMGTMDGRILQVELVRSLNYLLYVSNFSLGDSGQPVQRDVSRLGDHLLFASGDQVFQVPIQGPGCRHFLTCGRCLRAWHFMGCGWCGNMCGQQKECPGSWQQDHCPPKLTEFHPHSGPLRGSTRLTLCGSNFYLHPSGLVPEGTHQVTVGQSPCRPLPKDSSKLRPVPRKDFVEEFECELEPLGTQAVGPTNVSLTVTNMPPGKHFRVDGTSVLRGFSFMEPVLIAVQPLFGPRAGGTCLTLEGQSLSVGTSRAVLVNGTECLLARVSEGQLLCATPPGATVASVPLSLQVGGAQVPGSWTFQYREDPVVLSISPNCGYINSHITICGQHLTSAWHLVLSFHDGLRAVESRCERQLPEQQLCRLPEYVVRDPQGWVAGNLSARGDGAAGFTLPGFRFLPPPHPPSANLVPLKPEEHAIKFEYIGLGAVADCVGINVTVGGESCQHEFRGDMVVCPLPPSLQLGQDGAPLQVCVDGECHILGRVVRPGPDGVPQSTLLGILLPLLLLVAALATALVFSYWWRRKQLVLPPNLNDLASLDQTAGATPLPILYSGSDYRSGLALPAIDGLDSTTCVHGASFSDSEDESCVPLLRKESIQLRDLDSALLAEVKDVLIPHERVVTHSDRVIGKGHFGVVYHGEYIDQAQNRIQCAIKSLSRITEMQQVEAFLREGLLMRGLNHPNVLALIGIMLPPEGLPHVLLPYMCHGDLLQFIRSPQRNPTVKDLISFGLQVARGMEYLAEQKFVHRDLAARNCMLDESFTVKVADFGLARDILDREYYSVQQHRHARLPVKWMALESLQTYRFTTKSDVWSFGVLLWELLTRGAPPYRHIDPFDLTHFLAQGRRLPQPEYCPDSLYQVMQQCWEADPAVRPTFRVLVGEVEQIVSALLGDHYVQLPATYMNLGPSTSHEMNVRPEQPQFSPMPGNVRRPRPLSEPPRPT
pIC50: −log10 of the molar value.
measured.property: pIC50

> print(dat)
                                   compound  data.value
1  COc1cc2c(Oc3ccc(NC(=O)C4(C(=O)Nc5ccc(F)cc5)CC4)cc3F)ccnc2cc1OCCCN1CCN(C(=O)OC2CC/C=C/CCC2)CC1 (stereo not shown)        7.08

###

biological target: recombinant Human KDR (Homo sapiens, UniProt P35968); assay: z'-LYTE FRET kinase activity assay, KDR
Sequence (P35968 20-1356): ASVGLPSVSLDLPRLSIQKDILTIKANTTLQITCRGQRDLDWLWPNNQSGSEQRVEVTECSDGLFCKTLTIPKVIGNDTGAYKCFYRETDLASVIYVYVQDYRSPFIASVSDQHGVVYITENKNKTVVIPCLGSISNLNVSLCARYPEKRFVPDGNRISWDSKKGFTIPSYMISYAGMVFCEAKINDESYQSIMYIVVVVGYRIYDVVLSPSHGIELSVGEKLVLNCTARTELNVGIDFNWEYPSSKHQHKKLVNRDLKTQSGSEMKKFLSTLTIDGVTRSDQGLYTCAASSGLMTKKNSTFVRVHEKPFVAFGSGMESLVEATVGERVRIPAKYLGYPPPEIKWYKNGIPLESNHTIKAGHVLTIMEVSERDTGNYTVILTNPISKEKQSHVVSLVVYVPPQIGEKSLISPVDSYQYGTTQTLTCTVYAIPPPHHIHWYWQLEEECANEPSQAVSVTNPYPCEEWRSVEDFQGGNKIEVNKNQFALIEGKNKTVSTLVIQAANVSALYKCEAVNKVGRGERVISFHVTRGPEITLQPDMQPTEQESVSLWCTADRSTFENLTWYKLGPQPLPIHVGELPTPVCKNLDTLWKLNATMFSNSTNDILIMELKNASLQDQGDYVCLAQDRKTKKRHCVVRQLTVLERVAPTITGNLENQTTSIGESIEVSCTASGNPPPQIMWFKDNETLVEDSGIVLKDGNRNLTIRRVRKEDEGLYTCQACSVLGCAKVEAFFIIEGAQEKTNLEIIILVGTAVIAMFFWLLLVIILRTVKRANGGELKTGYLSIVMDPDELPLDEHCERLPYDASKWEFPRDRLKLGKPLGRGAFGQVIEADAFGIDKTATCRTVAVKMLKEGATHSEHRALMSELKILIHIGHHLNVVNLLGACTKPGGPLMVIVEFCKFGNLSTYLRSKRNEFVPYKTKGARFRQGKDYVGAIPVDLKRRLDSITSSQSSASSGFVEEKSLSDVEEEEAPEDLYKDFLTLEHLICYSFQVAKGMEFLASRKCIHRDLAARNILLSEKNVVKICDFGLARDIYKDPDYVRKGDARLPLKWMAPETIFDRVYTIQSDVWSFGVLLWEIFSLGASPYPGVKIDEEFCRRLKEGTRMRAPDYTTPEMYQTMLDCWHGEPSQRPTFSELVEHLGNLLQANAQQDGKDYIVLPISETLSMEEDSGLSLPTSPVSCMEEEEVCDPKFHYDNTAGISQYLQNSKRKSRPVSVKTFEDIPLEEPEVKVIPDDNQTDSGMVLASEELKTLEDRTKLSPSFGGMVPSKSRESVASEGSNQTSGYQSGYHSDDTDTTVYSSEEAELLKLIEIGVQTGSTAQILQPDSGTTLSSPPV

compound	target.desc	result.unit	IC50
COc1cc2c(Oc3ccc(NC(=O)C4(C(=O)Nc5ccc(F)cc5)CC4)cc3F)ccnc2cc1OCCCN1CCN(C(=O)OC2CC/C=C/CCC2)CC1 (stereo not shown) [Foretinib-TCO]	recombinant Human KDR (Homo sapiens, UniProt P35968)	nM	150

###

target: recombinant Human PDGFRα (Homo sapiens, UniProt P16234); assay: z'-LYTE FRET kinase activity assay, PDGFRα
Sequence (P16234 24-1089): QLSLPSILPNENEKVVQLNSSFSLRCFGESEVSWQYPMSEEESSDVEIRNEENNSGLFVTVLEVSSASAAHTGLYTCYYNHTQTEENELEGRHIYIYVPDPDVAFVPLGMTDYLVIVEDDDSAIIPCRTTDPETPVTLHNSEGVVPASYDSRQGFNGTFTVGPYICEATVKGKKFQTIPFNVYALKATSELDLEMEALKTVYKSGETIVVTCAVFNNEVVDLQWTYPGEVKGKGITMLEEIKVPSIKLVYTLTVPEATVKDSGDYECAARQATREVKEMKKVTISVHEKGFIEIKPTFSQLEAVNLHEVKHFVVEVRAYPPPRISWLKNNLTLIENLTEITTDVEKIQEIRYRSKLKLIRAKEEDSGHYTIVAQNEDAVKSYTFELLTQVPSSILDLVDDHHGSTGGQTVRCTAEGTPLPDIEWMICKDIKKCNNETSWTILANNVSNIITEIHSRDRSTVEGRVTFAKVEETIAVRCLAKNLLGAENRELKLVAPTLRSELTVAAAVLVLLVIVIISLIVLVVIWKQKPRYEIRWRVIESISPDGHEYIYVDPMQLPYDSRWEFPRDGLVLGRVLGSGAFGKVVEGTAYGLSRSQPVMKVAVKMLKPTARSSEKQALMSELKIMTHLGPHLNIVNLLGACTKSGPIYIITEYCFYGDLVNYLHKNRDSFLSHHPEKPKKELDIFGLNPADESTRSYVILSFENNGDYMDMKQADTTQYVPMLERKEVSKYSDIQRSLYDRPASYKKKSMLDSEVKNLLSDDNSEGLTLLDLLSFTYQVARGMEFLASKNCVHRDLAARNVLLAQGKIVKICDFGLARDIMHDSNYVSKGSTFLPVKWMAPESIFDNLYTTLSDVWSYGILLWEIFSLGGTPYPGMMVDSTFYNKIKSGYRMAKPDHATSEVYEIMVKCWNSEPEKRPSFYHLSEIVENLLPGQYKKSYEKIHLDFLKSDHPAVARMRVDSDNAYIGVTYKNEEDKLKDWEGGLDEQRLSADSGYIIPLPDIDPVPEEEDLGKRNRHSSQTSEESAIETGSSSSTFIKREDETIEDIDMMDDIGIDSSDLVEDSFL
pIC50: −log10 of the molar value.

compound	pIC50
COc1cc2c(Oc3ccc(NC(=O)C4(C(=O)Nc5ccc(F)cc5)CC4)cc3F)ccnc2cc1OCCCN1CCN(C(=O)OC2CC/C=C/CCC2)CC1 (stereo not shown) [Foretinib-TCO]	6.58

###

Target: recombinant human AXL (Homo sapiens, UniProt P30530)
Sequence (P30530 26-894): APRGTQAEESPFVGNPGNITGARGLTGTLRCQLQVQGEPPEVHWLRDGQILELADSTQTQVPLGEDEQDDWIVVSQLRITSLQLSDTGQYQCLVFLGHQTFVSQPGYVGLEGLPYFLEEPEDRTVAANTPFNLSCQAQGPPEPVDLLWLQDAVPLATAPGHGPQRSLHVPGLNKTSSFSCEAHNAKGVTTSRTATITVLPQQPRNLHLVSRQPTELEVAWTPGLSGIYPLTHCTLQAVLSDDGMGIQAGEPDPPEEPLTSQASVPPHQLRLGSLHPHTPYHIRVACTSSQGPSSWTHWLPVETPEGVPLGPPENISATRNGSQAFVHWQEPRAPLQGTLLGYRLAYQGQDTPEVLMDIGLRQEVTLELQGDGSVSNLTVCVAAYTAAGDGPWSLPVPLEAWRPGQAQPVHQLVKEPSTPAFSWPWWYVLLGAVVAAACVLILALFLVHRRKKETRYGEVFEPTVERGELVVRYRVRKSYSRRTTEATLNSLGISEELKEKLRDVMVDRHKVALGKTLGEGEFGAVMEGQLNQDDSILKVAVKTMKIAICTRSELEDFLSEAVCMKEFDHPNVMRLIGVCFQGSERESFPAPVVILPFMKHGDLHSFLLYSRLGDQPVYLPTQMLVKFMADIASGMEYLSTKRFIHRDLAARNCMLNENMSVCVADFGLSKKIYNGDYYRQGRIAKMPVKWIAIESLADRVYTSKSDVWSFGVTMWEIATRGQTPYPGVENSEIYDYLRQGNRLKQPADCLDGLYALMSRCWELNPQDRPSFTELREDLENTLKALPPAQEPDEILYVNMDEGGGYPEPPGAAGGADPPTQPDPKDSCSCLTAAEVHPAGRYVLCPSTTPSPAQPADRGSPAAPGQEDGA
Experiment: z'-LYTE FRET kinase activity assay, AXL
pIC50: −log10 of the molar value.
measured.property: pIC50

molecule	measured.property	data.value
COc1cc2c(Oc3ccc(NC(=O)C4(C(=O)Nc5ccc(F)cc5)CC4)cc3F)ccnc2cc1OCCCN1CCN(C(=O)OC2CC/C=C/CCC2)CC1 (stereo not shown) [Foretinib-TCO]	pIC50	7.14
